assay: Pharmacokinetics after intravenous and oral administration in rats; assay type: in vivo; details: rat, plasma, iv dosing, dose 1 mg/kg
Task for the reader: assign each of the following molecules its reported AUC(0-t).
State the answer as a number, implicitly in ng·h/mL.

Incoming: Give AUC(0-t) for the following molecule: CC(C)S(=O)(=O)N[C@H]1COC2C1OC[C@H]2Nc1nc(Nc2cnn(C)c2)ncc1Cl (stereo partly shown)
Outgoing: 726

Incoming: Give AUC(0-t) for the following molecule: Cn1cc(Nc2ncc(Cl)c(N[C@@H]3COC4C3OC[C@@H]4NS(=O)(=O)CC3CCC3)n2)cn1 (stereo partly shown)
Outgoing: 947

Incoming: Give AUC(0-t) for the following molecule: Cn1cc(Nc2ncc(Cl)c(N[C@@H]3COC4C3OC[C@@H]4NS(=O)(=O)C3CCCC3)n2)cn1 (stereo partly shown)
Outgoing: 497

Incoming: Give AUC(0-t) for the following molecule: CC(CS(=O)(=O)N[C@H]1COC2C1OC[C@H]2Nc1nc(Nc2cnn(C)c2)ncc1Cl)C(F)(F)F (stereo partly shown)
Outgoing: 533

Incoming: Give AUC(0-t) for the following molecule: Cn1cc(Nc2ncc(Cl)c(N[C@@H]3COC4C3OC[C@@H]4NS(=O)(=O)CC(C)(C)C#N)n2)cn1 (stereo partly shown)
Outgoing: 442

Incoming: Give AUC(0-t) for the following molecule: Cn1cc(Nc2ncc(Cl)c(N[C@H]3COC4C3OC[C@H]4NS(=O)(=O)CC(F)(F)F)n2)cn1 (stereo partly shown)
Outgoing: 420

Incoming: Give AUC(0-t) for the following molecule: CC(CS(=O)(=O)N[C@H]1COC2C1OC[C@H]2Nc1nc(Nc2cnn(C)c2)ncc1Cl)C(F)F (stereo partly shown)
Outgoing: 517

Incoming: Give AUC(0-t) for the following molecule: CC(C)=CS(=O)(=O)N[C@H]1COC2C1OC[C@H]2Nc1nc(Nc2cnn(C)c2)ncc1Cl (stereo partly shown)
Outgoing: 479

Incoming: Give AUC(0-t) for the following molecule: Cn1cc(Nc2ncc(Cl)c(N[C@@H]3COC4C3OC[C@@H]4NS(=O)(=O)C3CC3)n2)cn1 (stereo partly shown)
Outgoing: 712

Incoming: Give AUC(0-t) for the following molecule: Cn1cc(Nc2ncc(Cl)c(N[C@@H]3COC4C3OC[C@@H]4N3CCOC3=O)n2)cn1 (stereo partly shown)
Outgoing: 792

Incoming: Give AUC(0-t) for the following molecule: Cn1cc(Nc2ncc(Cl)c(N[C@@H]3COC4C3OC[C@@H]4NS(=O)(=O)C(C)(C)C)n2)cn1 (stereo partly shown)
Outgoing: 567

Incoming: Give AUC(0-t) for the following molecule: Cn1cc(Nc2ncc(Cl)c(N[C@@H]3COC4C3OC[C@@H]4NS(=O)(=O)CC(C)(C)C)n2)cn1 (stereo partly shown)
Outgoing: 696

Incoming: Give AUC(0-t) for the following molecule: CC(C)CS(=O)(=O)N[C@H]1COC2C1OC[C@H]2Nc1nc(Nc2cnn(C)c2)ncc1Cl (stereo partly shown)
Outgoing: 908

Incoming: Give AUC(0-t) for the following molecule: CNC(=O)N[C@H]1COC2C1OC[C@H]2Nc1nc(Nc2cnn(C)c2)ncc1Cl (stereo partly shown)
Outgoing: 398

Incoming: Give AUC(0-t) for the following molecule: Cn1cc(Nc2ncc(Cl)c(N[C@@H]3COC4C3OC[C@@H]4NS(=O)(=O)C3CCOC3)n2)cn1 (stereo partly shown)
Outgoing: 284

Incoming: Give AUC(0-t) for the following molecule: Cn1cc(Nc2ncc(Cl)c(N[C@@H]3COC4C3OC[C@@H]4NS(=O)(=O)CC3CCCO3)n2)cn1 (stereo partly shown)
Outgoing: 1540

###

Task for the reader: assign each of the following compounds its reported CLint scaled at 5 μM.
test: Compound stability in human liver microsomes; format: in vitro ADME; details: pH 7.4; human liver microsomes; in vivo CLint extrapolated
State the answer as a number, implicitly in mL/min/kg.

Incoming: Give CLint scaled at 5 μM for the following compound: CC(C)=CS(=O)(=O)N[C@H]1COC2C1OC[C@H]2Nc1nc(Nc2cnn(C)c2)ncc1Cl (stereo partly drawn)
Outgoing: 76

Incoming: Give CLint scaled at 5 μM for the following compound: Cn1cc(Nc2ncc(Cl)c(N[C@@H]3COC4C3OC[C@@H]4Nc3ccc(C#N)nn3)n2)cn1 (stereo partly drawn)
Outgoing: 12.3

Incoming: Give CLint scaled at 5 μM for the following compound: Cn1cc(Nc2ncc(Cl)c(N[C@@H]3COC4C3OC[C@@H]4N3CCCS3(=O)=O)n2)cn1 (stereo partly drawn)
Outgoing: 6.39

###

test: Pharmacokinetics after intravenous and oral administration in rats; assay type: in vivo; details: oral bioavailability
measuredAttribute: F (%)
State the answer as a number, implicitly in %.

Incoming: Give F for the following compound: Cn1cc(Nc2ncc(Cl)c(N[C@@H]3COC4C3OC[C@@H]4NS(=O)(=O)CC3CCCC3)n2)cn1 (stereo partly drawn)
Outgoing: 63.7

Incoming: Give F for the following compound: CCC(C)CS(=O)(=O)N[C@H]1COC2C1OC[C@H]2Nc1nc(Nc2cnn(C)c2)ncc1Cl (stereo partly drawn)
Outgoing: 53.6

Incoming: Give F for the following compound: CC(CF)CS(=O)(=O)N[C@H]1COC2C1OC[C@H]2Nc1nc(Nc2cnn(C)c2)ncc1Cl (stereo partly drawn)
Outgoing: 69.5

Incoming: Give F for the following compound: Cn1cc(Nc2ncc(Cl)c(N[C@@H]3COC4C3OC[C@@H]4N3CCOC3=O)n2)cn1 (stereo partly drawn)
Outgoing: 64.6

Incoming: Give F for the following compound: Cn1cc(Nc2ncc(Cl)c(N[C@@H]3COC4C3OC[C@@H]4NS(=O)(=O)CC(C)(C)O)n2)cn1 (stereo partly drawn)
Outgoing: 37.0

Incoming: Give F for the following compound: CC(C)CS(=O)(=O)N[C@@H]1COC2C1OC[C@@H]2Nc1nc(Nc2cnn(C)c2)ncc1Cl (stereo partly drawn)
Outgoing: 74.5

Incoming: Give F for the following compound: Cn1cc(Nc2ncc(Cl)c(N[C@@H]3COC4C3OC[C@@H]4NS(=O)(=O)C3CCCC3)n2)cn1 (stereo partly drawn)
Outgoing: 91.9

Incoming: Give F for the following compound: Cn1cc(Nc2ncc(Cl)c(N[C@@H]3COC4C3OC[C@@H]4NS(=O)(=O)C3CC3)n2)cn1 (stereo partly drawn)
Outgoing: 51.7

Incoming: Give F for the following compound: Cn1cc(Nc2ncc(Cl)c(N[C@@H]3COC4C3OC[C@@H]4NS(=O)(=O)c3ccc(F)cc3)n2)cn1 (stereo partly drawn)
Outgoing: 90.1

Incoming: Give F for the following compound: CC(CS(=O)(=O)N[C@H]1COC2C1OC[C@H]2Nc1nc(Nc2cnn(C)c2)ncc1Cl)C(F)(F)F (stereo partly drawn)
Outgoing: 77.3

Incoming: Give F for the following compound: Cn1cc(Nc2ncc(Cl)c(N[C@@H]3COC4C3OC[C@@H]4NS(=O)(=O)CC(F)(F)F)n2)cn1 (stereo partly drawn)
Outgoing: 66.1

Incoming: Give F for the following compound: Cn1cc(Nc2ncc(Cl)c(N[C@@H]3COC4C3OC[C@@H]4NS(=O)(=O)Cc3ccccc3)n2)cn1 (stereo partly drawn)
Outgoing: 28.2

Incoming: Give F for the following compound: Cn1cc(Nc2ncc(Cl)c(N[C@@H]3COC4C3OC[C@@H]4N3CCCC3=O)n2)cn1 (stereo partly drawn)
Outgoing: 96.9

Incoming: Give F for the following compound: Cn1cc(Nc2ncc(Cl)c(N[C@@H]3COC4C3OC[C@@H]4NS(=O)(=O)C(C)(C)C)n2)cn1 (stereo partly drawn)
Outgoing: 127.3

Incoming: Give F for the following compound: Cn1cc(Nc2ncc(Cl)c(N[C@@H]3COC4C3OC[C@@H]4NS(=O)(=O)CC3CC(F)C3)n2)cn1 (stereo partly drawn)
Outgoing: 48.7

Incoming: Give F for the following compound: CC(C)CS(=O)(=O)N[C@H]1COC2C1OC[C@H]2Nc1nc(Nc2cnn(C)c2)ncc1Cl (stereo partly drawn)
Outgoing: 101.3

Incoming: Give F for the following compound: CC(C)S(=O)(=O)N[C@H]1COC2C1OC[C@H]2Nc1nc(Nc2cnn(C)c2)ncc1Cl (stereo partly drawn)
Outgoing: 86.5

Incoming: Give F for the following compound: Cn1cc(Nc2ncc(Cl)c(N[C@@H]3COC4C3OC[C@@H]4NS(=O)(=O)CC(C)(C)C)n2)cn1 (stereo partly drawn)
Outgoing: 67.4

Incoming: Give F for the following compound: Cn1cc(Nc2ncc(Cl)c(N[C@@H]3COC4C3OC[C@@H]4NS(=O)(=O)CC3CCCO3)n2)cn1 (stereo partly drawn)
Outgoing: 28.9

Incoming: Give F for the following compound: Cn1cc(Nc2ncc(Cl)c(N[C@H]3COC4C3OC[C@H]4NS(=O)(=O)CC(F)(F)F)n2)cn1 (stereo partly drawn)
Outgoing: 44.0

Incoming: Give F for the following compound: CC(C)=CS(=O)(=O)N[C@H]1COC2C1OC[C@H]2Nc1nc(Nc2cnn(C)c2)ncc1Cl (stereo partly drawn)
Outgoing: 57.1

Incoming: Give F for the following compound: CNC(=O)N[C@H]1COC2C1OC[C@H]2Nc1nc(Nc2cnn(C)c2)ncc1Cl (stereo partly drawn)
Outgoing: 52.4

Incoming: Give F for the following compound: Cn1cc(Nc2ncc(Cl)c(N[C@@H]3COC4C3OC[C@@H]4NS(=O)(=O)N3CCOCC3)n2)cn1 (stereo partly drawn)
Outgoing: 40.0

Incoming: Give F for the following compound: Cn1cc(Nc2ncc(Cl)c(N[C@@H]3COC4C3OC[C@@H]4Nc3ccc(C#N)cn3)n2)cn1 (stereo partly drawn)
Outgoing: 67.5
